The following compounds are listed with their measured melting point values.

- compound: "CN1CCC(C2=C(C#N)C(c3cccc4nonc34)c3c[nH]nc3N2)CC1 (centres undefined)"
  melting point: "> 270 °C"
- compound: "COc1ccc(OCC(O)CNC(C)(C)C)c(C)c1C (centres undefined)"
  melting point: "73 to 75 °C"
- compound: "COc1cc2c(cc1Nc1ncc(Cl)c(N[C@@H]3[C@H](C(N)=O)[C@H]4C=C[C@@H]3C4)n1)CCOC(=O)N2C"
  melting point: "168 to 170 °C"
- compound: "Cc1ccccc1C(=O)Nc1ccc(C(=O)N2CCCC(n3cccc3)c3ccccc32)cc1 (centres undefined)"
  melting point: "208 to 210 °C"
- compound: "CNC(=O)[C@H]1S[C@@H](n2cnc3c(N)nc(Cl)nc32)[C@H](O)[C@@H]1O"
  melting point: "233 to 235 °C"
- compound: "COc1ccc(-c2nc(C(=O)c3ccc(F)cc3)c[nH]2)cc1"
  melting point: "245 to 247 °C"
- compound: "Cc1cc(OC/C=C/c2ccccc2)c(C)c(C)c1NC=O"
  melting point: "197 to 199 °C"
- compound: "CCCCCCOc1ccc(C2OCC(C(=O)O)CO2)cc1 (centres undefined)"
  melting point: "30 °C"
- compound: "O=C(Nc1ccccc1N1CCCCC1)c1ccncc1"
  melting point: "111 to 113 °C"
- compound: "CCn1ncnc1COc1nn2c(-c3ccccc3F)nncc2c1-c1ccncc1"
  melting point: "214 to 217 °C"
- compound: "CCCCN1C(N)=NS(=O)(=O)N=C1Oc1cccc(C)c1"
  melting point: "208 to 213 °C"
- compound: "O=C(O)c1cc2cc(Cl)ccc2nc1NC(COCc1ccccc1)C(=O)Nc1ccccc1 (centres undefined)"
  melting point: "150 to 151 °C"
- compound: "C=CS(=O)(=O)c1cc2c(Nc3cccc(Br)c3)ncnc2cn1"
  melting point: "214 to 217 °C"
- compound: "CN=C(NC#N)C1=CC2(CCCCC2)Oc2ccc([N+](=O)[O-])cc21"
  melting point: "244 to 245 °C"
- compound: "OCc1cc2cc(-c3ccc(OC(F)(F)F)cc3)ccc2n1Cc1ccccc1"
  melting point: "108 to 109 °C"
- compound: "CC(=O)N1CCc2c(sc3nc(CN4C(=O)CCC4=O)c(Cl)c(-c4ccc(O)cc4)c23)C1"
  melting point: "300 °C"
- compound: "CCCCCCCCCCCCCCCCCCOc1ccc2ccccc2c1O"
  melting point: "58 to 59 °C"
- compound: "CN(C)C(=S)SC(C[N+](=O)[O-])c1ccc(Br)cc1 (centres undefined)"
  melting point: "79 to 81 °C"
- compound: "COc1ccc(N2CCN(c3c(C)c(C)c4c(c3C)C(c3ccc(C)cc3)C(C)(C)O4)CC2)cc1OC (centres undefined)"
  melting point: "136 to 139 °C"
- compound: "CCOC(=O)c1cn(CC)c2cc(-c3csc(CN(C)C(C)=O)n3)c(F)cc2c1=O"
  melting point: "173 to 175 °C"
- compound: "CCOC(=NC(=O)c1ccc(Cl)c(Cl)c1)N1Cc2ccccc2-c2ccccc2C1"
  melting point: "138 °C"
- compound: "COc1ccc(-c2cc(=O)n(Cc3ccncc3)nc2-c2ccc(OC)cc2)cc1"
  melting point: "182 to 183 °C"
- compound: "CC(C)C[C@@H](CC(=O)O)NC(=O)[C@@H](CS)C(F)(F)F"
  melting point: "155 to 156 °C"
- compound: "COc1c(Cl)ccc(-c2nc(C=O)c(Cl)c(N)c2F)c1F"
  melting point: "192 to 196 °C"
- compound: "COc1ccc(C2(C#Cc3cnc(NC(C)=O)nc3)CCC(=O)CC2)cc1OC1CCCC1"
  melting point: "170 to 171 °C"
- compound: "Cc1ccnc(C(=O)c2sc(Cl)nc2C)c1"
  melting point: "115 to 116 °C"
- compound: "O=C(O)CC1COc2cc(Cl)c(Cl)cc2O1 (centres undefined)"
  melting point: "145 to 147 °C"
- compound: "NNc1ncccc1-c1cccnc1"
  melting point: "104 to 107 °C"
- compound: "Nc1ccnn1-c1cccc(C(F)(F)F)c1"
  melting point: "77 to 79 °C"

The measured values listed here are drawn from a melting point compilation (Tetko et al.; mined from patent text by program, amines drawn as free bases though some values may be those of a salt).
